Source listed as PubChem BioAssay AID1996.

Some compounds, each annotated with its measured log10 solubility kinetic.
# Test context: buffer; pH 7.4; 200.0 µM
In our notation, the value equals log10 of solubility kinetic in µg/mL.

# example entries with known answers
In plain terms, O=[N+]([O-])c1ccc(CNc2cccc(Cl)c2)s1 has a documented log10 solubility kinetic of 0.80

In plain terms, COc1ccccc1NC(=O)[C@@H]1CCCN1S(=O)(=O)c1ccc(Cl)cc1 has a documented log10 solubility kinetic of 1.51

In plain terms, Cc1ccc(NC(=O)C2Cc3ccccc3C(=O)O2)cc1 (stereo not drawn) has a documented log10 solubility kinetic of 0.67

In plain terms, COc1ccc(CNC(=O)CN2C(=O)NC(c3ccccc3)(c3ccccc3)C2=O)cc1 has a documented log10 solubility kinetic of 0.65

In plain terms, CC(C)(C)NC(=O)c1ccccc1-c1nc2ccccc2s1 has a documented log10 solubility kinetic of 1.55

In plain terms, O=C(NCc1ccccc1)c1cccc(S(=O)(=O)N2CCCCC2)c1 has a documented log10 solubility kinetic of 0.88

In plain terms, O=C(CN1CCCCCC1)Nc1ccc(Br)cc1[N+](=O)[O-] has a documented log10 solubility kinetic of -0.40

In plain terms, CO/N=C(\c1ccccc1)c1cccnc1 has a documented log10 solubility kinetic of 1.37

---
In plain terms, Cc1cc2nc(-c3ccc(=O)[nH]c3)n(Cc3ccccc3)c2cc1C has a documented log10 solubility kinetic of 1.64

In plain terms, N/C(=N\OC(=O)Cc1ccc(-c2ccccc2)cc1)c1ccncc1 has a documented log10 solubility kinetic of -0.15

In plain terms, N/C(=N\OC(=O)/C=C/c1ccccc1)c1ccc(Cl)cc1 has a documented log10 solubility kinetic of 0.11

In plain terms, O=S(=O)(c1ccc(F)cc1)N1CCc2ccccc2C1 has a documented log10 solubility kinetic of 0.08

In plain terms, COc1ccc(C)cc1NC(=O)COC(=O)c1ccc([N+](=O)[O-])o1 has a documented log10 solubility kinetic of 0.53

In plain terms, CCOC(=O)N1CCc2c(sc3ncn(Cc4ccc(F)cc4)c(=O)c23)C1 has a documented log10 solubility kinetic of 1.32

In plain terms, O=C(Nc1cccc2ccccc12)c1ccccc1Cl has a documented log10 solubility kinetic of 0.23

In plain terms, Cc1cccc(NC(=O)c2cnccn2)c1 has a documented log10 solubility kinetic of 1.34
